Target: α2-adrenergic receptors (Rattus norvegicus, UniProt P22909)
Sequence (P22909 1-465): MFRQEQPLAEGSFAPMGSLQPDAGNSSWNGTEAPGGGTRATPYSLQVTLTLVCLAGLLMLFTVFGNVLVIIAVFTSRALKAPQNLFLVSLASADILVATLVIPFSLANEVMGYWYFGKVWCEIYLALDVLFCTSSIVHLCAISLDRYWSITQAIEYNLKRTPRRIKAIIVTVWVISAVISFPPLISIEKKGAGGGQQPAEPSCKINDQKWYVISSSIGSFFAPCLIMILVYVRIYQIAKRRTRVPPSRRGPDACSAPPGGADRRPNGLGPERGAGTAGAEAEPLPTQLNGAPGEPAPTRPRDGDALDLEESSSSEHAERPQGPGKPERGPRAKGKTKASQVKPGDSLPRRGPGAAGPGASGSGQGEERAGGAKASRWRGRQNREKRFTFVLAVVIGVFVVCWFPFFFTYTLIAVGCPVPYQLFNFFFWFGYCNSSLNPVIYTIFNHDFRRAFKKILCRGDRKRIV
readout: pKi
# pKi: negative log10 of molar concentration; output just the value

Please report the measured pKi for C1=NC[C@@]2(CC[C@@H]3Cc4ccccc4C[C@H]3C2)N1 (relative stereo) 8.00

Where do these numbers come from? They come from patent US6172097A.
